Settings: in sec-butanol, 303.15 K
readout.kind: solubility (mole fraction)

- CC(C)(C)NCC(O)c1ccc(O)c(CO)c1 (stereo unspecified): 0.00163

----------
Conditions: in sec-butanol, 328.15 K
readout.kind: solubility (mole fraction)

* CC(C)(C)NCC(O)c1ccc(O)c(CO)c1 (stereo unspecified) | 0.00286

----------
Conditions: in isobutanol, 323.15 K
readout.kind: solubility (mole fraction)

• CC(C)(C)NCC(O)c1ccc(O)c(CO)c1 (stereo unspecified) = 0.00385

----------
Details: in methanol, 308.15 K
readout.kind: solubility (mole fraction)

- CC(C)(C)NCC(O)c1ccc(O)c(CO)c1 (stereo unspecified): 0.0101

----------
Details: in n-propanol, 313.15 K
readout.kind: solubility (mole fraction)

• CC(C)(C)NCC(O)c1ccc(O)c(CO)c1 (stereo unspecified) = 0.00479

----------
Settings: in isopropanol, 283.15 K
readout.kind: solubility (mole fraction)

* CC(C)(C)NCC(O)c1ccc(O)c(CO)c1 (stereo unspecified) | 0.00185

----------
Conditions: in n-propanol, 303.15 K
readout.kind: solubility (mole fraction)

- CC(C)(C)NCC(O)c1ccc(O)c(CO)c1 (stereo unspecified): 0.0036

----------
Conditions: in acetone, 288.15 K
readout.kind: solubility (mole fraction)

- CC(C)(C)NCC(O)c1ccc(O)c(CO)c1 (stereo unspecified): 0.000162

----------
Settings: in methyl acetate, 328.15 K
readout.kind: solubility (mole fraction)

* CC(C)(C)NCC(O)c1ccc(O)c(CO)c1 (stereo unspecified) | 0.000735

----------
Conditions: in isobutanol, 308.15 K
readout.kind: solubility (mole fraction)

• CC(C)(C)NCC(O)c1ccc(O)c(CO)c1 (stereo unspecified) = 0.00272

----------
Details: in ethyl acetate, 293.15 K
readout.kind: solubility (mole fraction)

• CC(C)(C)NCC(O)c1ccc(O)c(CO)c1 (stereo unspecified) = 0.000231

----------
Conditions: in isobutanol, 293.15 K
readout.kind: solubility (mole fraction)

- CC(C)(C)NCC(O)c1ccc(O)c(CO)c1 (stereo unspecified): 0.00192

----------
Conditions: in isopropanol, 308.15 K
readout.kind: solubility (mole fraction)

• CC(C)(C)NCC(O)c1ccc(O)c(CO)c1 (stereo unspecified) = 0.00382

----------
Details: in isobutanol, 288.15 K
readout.kind: solubility (mole fraction)

- CC(C)(C)NCC(O)c1ccc(O)c(CO)c1 (stereo unspecified): 0.00172

----------
Settings: in acetone, 323.15 K
readout.kind: solubility (mole fraction)

- CC(C)(C)NCC(O)c1ccc(O)c(CO)c1 (stereo unspecified): 0.000396

----------
Conditions: in n-propanol, 293.15 K
readout.kind: solubility (mole fraction)

• CC(C)(C)NCC(O)c1ccc(O)c(CO)c1 (stereo unspecified) = 0.00267

----------
Conditions: in sec-butanol, 323.15 K
readout.kind: solubility (mole fraction)

* CC(C)(C)NCC(O)c1ccc(O)c(CO)c1 (stereo unspecified) | 0.00252

----------
Settings: in isopropanol, 288.15 K
readout.kind: solubility (mole fraction)

* CC(C)(C)NCC(O)c1ccc(O)c(CO)c1 (stereo unspecified) | 0.00205

----------
Conditions: in sec-butanol, 288.15 K
readout.kind: solubility (mole fraction)

* CC(C)(C)NCC(O)c1ccc(O)c(CO)c1 (stereo unspecified) | 0.00115

----------
Details: in n-butanol, 308.15 K
readout.kind: solubility (mole fraction)

* CC(C)(C)NCC(O)c1ccc(O)c(CO)c1 (stereo unspecified) | 0.00187

----------
Settings: in ethanol, 318.15 K
readout.kind: solubility (mole fraction)

• CC(C)(C)NCC(O)c1ccc(O)c(CO)c1 (stereo unspecified) = 0.00709

----------
Details: in methanol, 313.15 K
readout.kind: solubility (mole fraction)

* CC(C)(C)NCC(O)c1ccc(O)c(CO)c1 (stereo unspecified) | 0.0112

----------
Details: in n-butanol, 328.15 K
readout.kind: solubility (mole fraction)

• CC(C)(C)NCC(O)c1ccc(O)c(CO)c1 (stereo unspecified) = 0.00292

----------
Conditions: in methyl acetate, 318.15 K
readout.kind: solubility (mole fraction)

- CC(C)(C)NCC(O)c1ccc(O)c(CO)c1 (stereo unspecified): 0.000631

----------
Conditions: in methanol, 283.15 K
readout.kind: solubility (mole fraction)

* CC(C)(C)NCC(O)c1ccc(O)c(CO)c1 (stereo unspecified) | 0.00599

----------
Conditions: in ethanol, 298.15 K
readout.kind: solubility (mole fraction)

* CC(C)(C)NCC(O)c1ccc(O)c(CO)c1 (stereo unspecified) | 0.00323

----------
Details: in sec-butanol, 308.15 K
readout.kind: solubility (mole fraction)

• CC(C)(C)NCC(O)c1ccc(O)c(CO)c1 (stereo unspecified) = 0.00182

----------
Details: in acetone, 293.15 K
readout.kind: solubility (mole fraction)

- CC(C)(C)NCC(O)c1ccc(O)c(CO)c1 (stereo unspecified): 0.000185

----------
Conditions: in ethyl acetate, 328.15 K
readout.kind: solubility (mole fraction)

- CC(C)(C)NCC(O)c1ccc(O)c(CO)c1 (stereo unspecified): 0.000501

----------
Settings: in ethanol, 308.15 K
readout.kind: solubility (mole fraction)

• CC(C)(C)NCC(O)c1ccc(O)c(CO)c1 (stereo unspecified) = 0.0049

----------
Conditions: in methyl acetate, 293.15 K
readout.kind: solubility (mole fraction)

- CC(C)(C)NCC(O)c1ccc(O)c(CO)c1 (stereo unspecified): 0.000441

----------
Conditions: in isobutanol, 318.15 K
readout.kind: solubility (mole fraction)

* CC(C)(C)NCC(O)c1ccc(O)c(CO)c1 (stereo unspecified) | 0.00343

----------
Conditions: in n-butanol, 288.15 K
readout.kind: solubility (mole fraction)

- CC(C)(C)NCC(O)c1ccc(O)c(CO)c1 (stereo unspecified): 0.0012

----------
Conditions: in ethyl acetate, 283.15 K
readout.kind: solubility (mole fraction)

* CC(C)(C)NCC(O)c1ccc(O)c(CO)c1 (stereo unspecified) | 0.000185

----------
Details: in ethyl acetate, 288.15 K
readout.kind: solubility (mole fraction)

• CC(C)(C)NCC(O)c1ccc(O)c(CO)c1 (stereo unspecified) = 0.000204
